Could you please report measured pIC50 for the items listed next?
test system: SQ20B; assay: Cytotoxicity against human SQ20B cells after 72 hrs by MTT assay; format: functional, cell-based
Give bare numbers, as −log10 of the molar value.

The following molecules have reported results that may help.
Given Smiles	Tested On	pIC50
COc1ccc(-c2cc3c(CN4CCC(N5CCCCC5)CC4)c(O)ccc3o2)c(OC)c1	SQ20B	5.96
COc1ccc(-c2cc3c(CN4CCC(N5CCCCC5)CC4)c(O)ccc3o2)cc1	SQ20B	6.07
Oc1ccc2oc(-c3cccc4ccccc34)cc2c1CN1CCC(N2CCCCC2)CC1	SQ20B	6.07

Working through the 2 molecules below one at a time, give pIC50 for each.
1. Oc1ccc2oc(-c3ccc4ccccc4c3)cc2c1CN1CCC(N2CCCCC2)CC1
2. COc1ccc2oc(-c3ccccc3)cc2c1CN1CCC(N2CCCCC2)CC1

[5.55, 5.60]

# map each molecule to its pIC50
1. Oc1ccc2occ(-c3ccccc3)c2c1CN1CCC(N2CCCCC2)CC1
2. O=S(=O)(Nc1ccc2oc(-c3ccccc3)cc2c1CN1CCC(N2CCCCC2)CC1)C(F)(F)F
3. Cn1c(-c2ccccc2)cc2c(CN3CCC(N4CCCCC4)CC3)c(O)ccc21
4. Oc1ccc2[nH]c(-c3ccccc3)nc2c1CN1CCC(N2CCCCC2)CC1
5. Oc1ccc2oc(-c3ccccc3)nc2c1CN1CCC(N2CCCCC2)CC1

[4.96, 5.68, 4.72, 4.68, 5.19]

====

test system: SQ20B; test: Cytotoxicity against human SQ20B cells after 72 hrs by MTT assay; assay type: functional, cell-based
Kindly supply the reported pIC50 values for the records listed here.
Numbers only, as −log10 of the molar value.

Given Smiles	pIC50
COc1cccc(-c2cc3c(CN4CCC(N5CCCCC5)CC4)c(O)ccc3o2)c1	5.70
Oc1ccc2oc(-c3cccc(Cl)c3)cc2c1CN1CCC(N2CCCCC2)CC1	6.04
Oc1ccc2cc(-c3ccccc3)oc2c1CN1CCC(N2CCCCC2)CC1	4.96
Oc1ccc2oc(-c3ccccc3OCc3ccccc3)cc2c1CN1CCC(N2CCCCC2)CC1	6.42
c1ccc(-c2cc3c(CN4CCC(N5CCCCC5)CC4)nccc3o2)cc1	4.74

Give one value of pIC50 per listed compound.
1. CN(C)Cc1c(O)ccc2oc(-c3ccccc3)cc12
2. Cc1c(-c2ccccc2)oc2ccc(O)c(CN3CCC(N4CCCCC4)CC3)c12

[4.49, 5.92]

====

Consider the following compounds; for each one, report its IC50.
test system: SQ20B; experiment: Cytotoxicity against human SQ20B cells after 72 hrs by MTT assay; assay type: functional, cell-based
Answers are plain numbers, in nM.

# count of solved cases: 2
Given Smiles	Tested On	IC50 / nM
COc1ccc2oc(-c3ccccc3OCc3ccccc3)cc2c1CN1CCC(N(C)C)CC1	SQ20B	460
Oc1ccc2oc(-c3ccccc3)cc2c1CN1CCC(N2CCCCC2)CC1	SQ20B	1400

Please turn your attention to the following entry.
Which value of IC50 has been reported for CO[C@H]1C[C@@H]2CC[C@@H](C)[C@@](O)(O2)C(=O)C(=O)N2CCCC[C@H]2C(=O)O[C@H]([C@H](C)C[C@@H]2CC[C@@H](OCCO)[C@H](OC)C2)CC(=O)[C@H](C)/C=C(\C)[C@@H](O)[C@@H](OC)C(=O)[C@H](C)C[C@H](C)/C=C/C=C/C=C/1C in the records?
7300

====

Exercise: state measured IC50 for each of the compounds provided.
test system: SQ20B; assay: Cytotoxicity against human SQ20B cells after 72 hrs by MTT assay; format: functional, cell-based
Give bare numbers, in nM.

As a guide, the following entries are already answered.
Given Smiles	IC50, nM
Oc1ccc2oc(-c3ccccc3Cl)cc2c1CN1CCC(N2CCCCC2)CC1	2600
Oc1ccc2oc(-c3cccs3)cc2c1CN1CCC(N2CCCCC2)CC1	2700
COc1ccccc1-c1cc2c(CN3CCC(N4CCCCC4)CC3)c(O)ccc2o1	1300
Oc1ccc2oc(-c3ccco3)cc2c1CN1CCC(N2CCCCC2)CC1	4000
Oc1ccc2oc(-c3ccc(Cl)cc3)cc2c1CN1CCC(N2CCCCC2)CC1	860
COc1ccc(-c2cc3c(CN4CCC(N(C)C)CC4)c(O)ccc3o2)cc1	1200
c1ccc(-c2cc3c(CN4CCC(N5CCCCC5)CC4)cccc3o2)cc1	7500
CCOC(=O)c1c(-c2ccccc2)oc2ccc(O)c(CN3CCC(N4CCCCC4)CC3)c12	1500

Now look at this one.
What measured IC50 goes with O=S(=O)(Oc1ccc2oc(-c3ccccc3)cc2c1CN1CCC(N2CCCCC2)CC1)C(F)(F)F ?
2800

====

test system: SQ20B; test: Cytotoxicity against human SQ20B cells after 72 hrs by MTT assay; type: functional, cell-based
Readout Type: pIC50
Answers are plain numbers, as −log10 of the molar value.

Given Smiles	Readout Type	Assay Value
OCc1c(-c2ccccc2)oc2ccc(O)c(CN3CCC(N4CCCCC4)CC3)c12	pIC50	5.47
Oc1ccc2oc(-c3ccc(Cl)c(Cl)c3)cc2c1CN1CCC(N2CCCCC2)CC1	pIC50	5.64

Here is the next item to consider.
Lab request: please report pIC50 under test system SQ20B for Oc1ccc2c(ccn2Cc2ccccc2)c1CN1CCC(N2CCCCC2)CC1
4.77

The reported measurements were obtained from ChEMBL document CHEMBL3286102.
